Below is a list of entries, each paired with its recorded a(CA1, O4, H2) value.
Assay System: MASP-2 CCP2-SP (Homo sapiens (Human), UniProt O00187)
Sequence (O00187 445-686): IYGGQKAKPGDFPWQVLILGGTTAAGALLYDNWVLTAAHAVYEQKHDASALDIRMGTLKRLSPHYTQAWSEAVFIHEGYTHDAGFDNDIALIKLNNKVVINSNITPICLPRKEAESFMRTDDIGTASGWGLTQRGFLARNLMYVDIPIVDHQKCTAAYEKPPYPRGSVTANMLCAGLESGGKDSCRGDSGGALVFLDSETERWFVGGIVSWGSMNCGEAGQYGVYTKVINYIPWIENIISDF
Sequence (O00187 364-432 partner): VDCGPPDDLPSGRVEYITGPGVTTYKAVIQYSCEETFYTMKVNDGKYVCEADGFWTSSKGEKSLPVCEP
Test Description: MASP-2 co-crystallization, X-ray crystallography and structure analysis (H-bonds, van der Waals contacts)
Condition Context: Table A6-1 pharmacophore angle

{"columns": ["Molecule", "a(CA1, O4, H2)"],
 "data": [
  ["C[C@H](NC(=O)[C@H]1C[C@@H](c2ccccc2)CCN1)C(=O)NCc1cc(Cl)ccc1O.Cl [1078_6]", 126.69],
  ["C[C@H](NC(=O)[C@H]1C[C@@H](c2ccccc2)CCN1)C(=O)NCc1cc(Cl)ccc1O.Cl [1078_7]", 126.10],
  ["C[C@H](NC(=O)[C@H]1C[C@@H](c2ccccc2)CCN1)C(=O)NCc1cc(Cl)ccc1O.Cl [1078_8]", 125.48],
  ["C[C@H](NC(=O)[C@H]1C[C@@H](c2ccccc2)CCN1)C(=O)NCc1cc(Cl)ccc1O.Cl [1078_13]", 129.33],
  ["C[C@H](NC(=O)[C@H]1C[C@@H](c2ccccc2)CCN1)C(=O)NCc1cc(Cl)ccc1O.Cl [1078_4]", 128.57],
  ["C[C@H](NC(=O)[C@H]1C[C@@H](c2ccccc2)CCN1)C(=O)NCc1cc(Cl)ccc1O.Cl [1078_12]", 127.55],
  ["C[C@H](NC(=O)[C@H]1C[C@@H](c2ccccc2)CCN1)C(=O)NCc1cc(Cl)ccc1O.Cl [1078_11]", 130.34],
  ["C[C@H](NC(=O)[C@H]1C[C@@H](c2ccccc2)CCN1)C(=O)NCc1cc(Cl)ccc1O.Cl [1078_9]", 128.05],
  ["C[C@H](NC(=O)[C@H]1C[C@@H](c2ccccc2)CCN1)C(=O)NCc1cc(Cl)ccc1O.Cl [1078_5]", 131.80],
  ["C[C@H](NC(=O)[C@H]1C[C@@H](c2ccccc2)CCN1)C(=O)NCc1cc(Cl)ccc1O.Cl [1078_16]", 126.68],
  ["Cc1cc(Cl)cc(CNC(=O)[C@H](C)NC(=O)[C@H]2C[C@H](Cc3ccccc3)CN2)c1O [compound 1307]", 127.11],
  ["C[C@H](NC(=O)[C@H]1C[C@@H](c2ccccc2)CCN1)C(=O)NCc1cc(Cl)ccc1O.Cl [1078_15]", 127.31],
  ["C[C@H](NC(=O)[C@H]1C[C@@H](c2ccccc2)CCN1)C(=O)NCc1cc(Cl)ccc1O.Cl [1078_2]", 128.74],
  ["C[C@H](NC(=O)[C@H]1C[C@@H](c2ccccc2)CCN1)C(=O)NCc1cc(Cl)ccc1O.Cl [1078_1]", 126.79],
  ["C[C@H](NC(=O)[C@H]1C[C@@H](c2ccccc2)CCN1)C(=O)NCc1cc(Cl)ccc1O.Cl [1078_10]", 127.01],
  ["C[C@H](NC(=O)[C@H]1C[C@@H](c2ccccc2)CCN1)C(=O)NCc1cc(Cl)ccc1O.Cl [1078_3]", 128.44],
  ["C[C@H](NC(=O)[C@H]1C[C@@H](c2ccccc2)CCN1)C(=O)NCc1cc(Cl)ccc1O.Cl [1078_14]", 126.58]
]}

---

Below is a list of entries, each paired with its recorded d(H4,O2) value.
Assay System: MASP-2 CCP2-SP (Homo sapiens (Human), UniProt O00187)
Test Description: MASP-2 co-crystallization, X-ray crystallography and structure analysis (H-bonds, van der Waals contacts)
Design: unit not given beside the values
Condition Context: Table A5-1 pharmacophore: distance between elements, S2/S1 region
Where a name gives a salt, the structure may show the parent alone.

{"columns": ["Compound", "d(H4,O2)"],
 "data": [
  ["C[C@H](NC(=O)[C@@H](CCc1ccccc1)NCc1ccc(N2CCOCC2)cc1)C(=O)NCc1ccc(C(=N)N)cc1 [compound 1149]", 8.32],
  ["N=C(N)c1ccc(CNC(=O)C(CF)NC(=O)[C@H](N)CCc2ccccc2)cc1 (some centres unmarked) [compound 1050, Dihydrochloride]", 4.38],
  ["C[C@H](NC(=O)[C@H]1C[C@@H](c2ccccc2)CCN1)C(=O)NCc1cc(Cl)ccc1O.Cl [1078_4]", 2.64],
  ["C[C@H](NC(=O)[C@H](N)CCc1cc(Cl)cc(Cl)c1)C(=O)NCc1ccc(C(=N)N)cc1 [compound 1118]", 4.52],
  ["Cc1nc(N)ccc1CNC(=O)[C@H](C)NC(=O)[C@H]1C[C@H](Cc2ccccc2-c2ccccc2)CN1 [compound 1373, Di-trifluoroacetate salt]", 3.78],
  ["Cc1nc(N)ccc1CNC(=O)[C@H](C)NC(=O)[C@H]1C[C@H](Cc2cc(-c3ccccc3)cs2)CN1 [compound 1399, Dihydrochloride]", 3.82],
  ["CC(=O)Nc1ccc(CCNC(CCc2ccccc2)C(=O)NC(C)C(=O)NCc2ccc(C(=N)N)cc2)cc1.Cl.Cl (centres unmarked) [1345_2]", 4.32],
  ["C[C@H](NC(=O)[C@H](N)CCCc1ccccc1)C(=O)NCc1ccc(C(=N)N)cc1.Cl.Cl [1042_3]", 4.90],
  ["Cc1nc(N)ccc1CNC(=O)[C@H](C)NC(=O)[C@H]1C[C@@H](c2cccc3ccccc23)CCN1.Cl.Cl [1297_5]", 3.82],
  ["C[C@H](NC(=O)[C@H](N)CCc1cccc(Cl)c1)C(=O)NCc1ccc(C(=N)N)cc1 [compound 1081]", 4.46],
  ["C[C@H](NC(=O)[C@H](N)CCCc1ccccc1)C(=O)NCc1ccc(C(=N)N)cc1.Cl.Cl [1042_1]", 3.67],
  ["CC(NC(=O)C(CCc1ccccc1)NCc1ccc(C(=O)N2CCOCC2)cc1)C(=O)NCc1ccc(C(=N)N)cc1.Cl.Cl (centres unmarked) [1153_A]", 4.36],
  ["C[C@H](NC(=O)[C@H]1C[C@H](Cc2ccccc2)CN1)C(=O)NCc1ccc(C(=N)N)cc1.Cl.Cl [1306_2]", 5.71],
  ["Cc1nc(N)ccc1CNC(=O)[C@H](C)NC(=O)[C@H]1C[C@H](Cc2cccc(-c3ccccc3)c2)CN1 [compound 1406]", 3.89]
]}

---

Assay System: MASP-2 CCP2-SP (Homo sapiens (Human), UniProt O00187)
Test Description: MASP-2 co-crystallization, X-ray crystallography and structure analysis (H-bonds, van der Waals contacts)
Set-up: unit not given beside the values
Condition Context: Table A5-1 pharmacophore: distance between elements, S2/S1 region
Counter-ions that a name gives are not always drawn.

{"columns": ["Compound", "Assay System", "d(O1,O2)"],
 "data": [
  ["Cc1nc(N)ccc1CNC(=O)C(C)NC(=O)C1CC(c2cccc3ccccc23)CCN1.Cl.Cl (stereo not drawn) [1297_3]", "MASP-2 CCP2-SP (Homo sapiens (Human), UniProt O00187)", 3.55],
  ["Cc1cc(Cl)cc(CNC(=O)[C@H](C)NC(=O)[C@H]2C[C@H](Cc3ccccc3)CN2)c1O [compound 1307]", "MASP-2 CCP2-SP (Homo sapiens (Human), UniProt O00187)", 3.17],
  ["Cc1nc(N)ccc1CNC(=O)[C@H](C)NC(=O)[C@H]1C[C@H](Cc2ccccc2)CN1 [compound 1304]", "MASP-2 CCP2-SP (Homo sapiens (Human), UniProt O00187)", 3.37],
  ["C[C@H](NC(=O)[C@H](N)C1Cc2ccccc2C1)C(=O)NCc1ccc2nc(N)[nH]c2c1 [compound 1059]", "MASP-2 CCP2-SP (Homo sapiens (Human), UniProt O00187)", 3.20],
  ["N=C(N)c1ccc(CNC(=O)[C@@H]2CCN2C(=O)[C@H](NCC(=O)O)C2Cc3ccccc3C2)cc1 [compound 1129]", "MASP-2 CCP2-SP (Homo sapiens (Human), UniProt O00187)", 3.49],
  ["Cc1nc(N)ccc1CNC(=O)[C@H](C)NC(=O)[C@H]1C[C@@H](c2cccc3ccccc23)CCN1.Cl.Cl [1297_2]", "MASP-2 CCP2-SP (Homo sapiens (Human), UniProt O00187)", 3.57],
  ["C[C@H](NC(=O)[C@H]1C[C@H](Cc2ccccc2)CN1)C(=O)NCc1cc(Cl)ccc1-n1cnnn1 [compound 1371, Hydrochloride]", "MASP-2 CCP2-SP (Homo sapiens (Human), UniProt O00187)", 3.25],
  ["Cc1nc(N)ccc1CNC(=O)[C@H](C)NC(=O)[C@H]1C[C@@H](c2ccccc2)CCN1C [compound 1441]", "MASP-2 CCP2-SP (Homo sapiens (Human), UniProt O00187)", 3.29],
  ["C[C@H](NC(=O)[C@H]1C[C@@H](c2ccccc2)CN1)C(=O)NCc1ccc2c(N)nccc2c1.Cl.Cl [1089_A]", "MASP-2 CCP2-SP (Homo sapiens (Human), UniProt O00187)", 3.34],
  ["Cc1nc(N)ccc1CNC(=O)[C@H](C)NC(=O)[C@H]1C[C@H](Cc2ccccc2Br)CN1.O=C(O)C(F)(F)F.O=C(O)C(F)(F)F [1372_A]", "MASP-2 CCP2-SP (Homo sapiens (Human), UniProt O00187)", 3.32],
  ["C[C@H](NC(=O)[C@H]1C[C@@H](c2ccccc2)CCN1)C(=O)NCc1cc(Cl)ccc1O.Cl [1078_5]", "MASP-2 CCP2-SP (Homo sapiens (Human), UniProt O00187)", 3.41],
  ["C[C@H](NC(=O)[C@H](N)CCc1ccccc1)C(=O)NCc1ccc(N)nc1.Cl.Cl [1007_1]", "MASP-2 CCP2-SP (Homo sapiens (Human), UniProt O00187)", 3.55],
  ["Cc1cnc(NCCc2ccccc2)c(=O)n1CC(=O)NCc1ccc2nc(N)[nH]c2c1 [compound 1492]", "MASP-2 CCP2-SP (Homo sapiens (Human), UniProt O00187)", 3.18],
  ["Cc1nc(N)ccc1CNC(=O)[C@H](C)NC(=O)[C@H]1C[C@@H](c2cccc3ccccc23)CCN1.Cl.Cl [1297_5]", "MASP-2 CCP2-SP (Homo sapiens (Human), UniProt O00187)", 3.43],
  ["CC(=O)Nc1ccc(CCNC(CCc2ccccc2)C(=O)NC(C)C(=O)NCc2ccc(C(=N)N)cc2)cc1.Cl.Cl (stereo not drawn) [1345_2]", "MASP-2 CCP2-SP (Homo sapiens (Human), UniProt O00187)", 3.32]
]}
